Entries and their IC50
Target: Dimer of Gag-Pol polyprotein [489-587] (Human immunodeficiency virus 1)
Construct: 489-587
Assay: Enzyme Inhibition Assay
Conditions: pH 4.5; 30 °C
Write down the numeric answer in nM and omit the unit.

Cc1nc(CN2CCN([C@H](C(=O)N[C@@H](Cc3ccccc3)[C@H](O)CN(CC(C)C)S(=O)(=O)c3ccc(CO)cc3)C(C)C)C2=O)cs1: 16

Assign IC50 to the following record: CO/N=C/c1ccc(S(=O)(=O)N(CC(C)C)C[C@@H](O)[C@H](Cc2ccccc2)NC(=O)[C@H](C(C)C)N2CCN(Cc3csc(C)n3)C2=O)cc1
653

Assign IC50 to the following record: Cc1nc(CN2CCN([C@H](C(=O)N[C@@H](Cc3ccccc3)[C@H](O)CN(CC(C)C)S(=O)(=O)c3ccc(CN=O)cc3)C(C)C)C2=O)cs1
5

Assign IC50 to the following record: Cc1nc(CN2CCN([C@H](C(=O)N[C@@H](Cc3ccccc3)[C@H](O)CN(CC(C)C)S(=O)(=O)c3cccc(CN=O)c3)C(C)C)C2=O)cs1
16
